Quick reference for Efficacy among some compounds
Assay Target: UniProtKB P22888
Sequence (P22888 whole entry): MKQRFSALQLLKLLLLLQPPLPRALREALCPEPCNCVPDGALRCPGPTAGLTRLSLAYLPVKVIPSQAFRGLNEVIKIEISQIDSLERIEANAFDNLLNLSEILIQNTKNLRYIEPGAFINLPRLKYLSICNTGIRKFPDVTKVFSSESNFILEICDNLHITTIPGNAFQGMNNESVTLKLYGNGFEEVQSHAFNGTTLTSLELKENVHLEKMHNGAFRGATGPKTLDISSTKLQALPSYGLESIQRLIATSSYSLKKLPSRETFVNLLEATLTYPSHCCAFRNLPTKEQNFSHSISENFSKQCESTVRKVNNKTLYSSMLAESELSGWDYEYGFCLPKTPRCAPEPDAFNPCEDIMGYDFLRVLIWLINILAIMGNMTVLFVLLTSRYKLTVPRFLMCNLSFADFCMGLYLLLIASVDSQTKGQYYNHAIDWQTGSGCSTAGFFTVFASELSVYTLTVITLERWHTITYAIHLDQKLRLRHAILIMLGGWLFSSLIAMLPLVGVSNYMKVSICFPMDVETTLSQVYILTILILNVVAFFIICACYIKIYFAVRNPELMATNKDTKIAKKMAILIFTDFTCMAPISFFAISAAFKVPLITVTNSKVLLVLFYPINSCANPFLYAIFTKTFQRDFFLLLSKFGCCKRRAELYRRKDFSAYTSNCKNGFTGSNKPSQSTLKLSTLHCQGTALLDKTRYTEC
Protocol Notes: Agonist activity at LHCGR expressed in HEK293 EM cells measured by intracellular cAMP accumulation relative to LH
Type: functional, cell-based
Metric: Efficacy (%)

[[record]]
chem_smiles = "COc1cccc(-c2nc(SC)nc3sc(C(=O)NCCc4ccccc4)c(N)c23)c1"
metric = "Efficacy"
unit_of_measure = "%"
reported_measurement = 25.6

[[record]]
chem_smiles = "COc1cccc(-c2nc(SC)nc3sc(C(=O)NCC#N)c(N)c23)c1"
metric = "Efficacy"
unit_of_measure = "%"
reported_measurement = 20.3

[[record]]
chem_smiles = "CSc1nc(-c2cccc(O)c2)c2c(N)c(C(=O)NC(C)(C)C)sc2n1"
metric = "Efficacy"
unit_of_measure = "%"
reported_measurement = 63.9

